Target: human TLR8 (Homo sapiens, UniProt Q9NR97)
Sequence (Q9NR97 27-1041): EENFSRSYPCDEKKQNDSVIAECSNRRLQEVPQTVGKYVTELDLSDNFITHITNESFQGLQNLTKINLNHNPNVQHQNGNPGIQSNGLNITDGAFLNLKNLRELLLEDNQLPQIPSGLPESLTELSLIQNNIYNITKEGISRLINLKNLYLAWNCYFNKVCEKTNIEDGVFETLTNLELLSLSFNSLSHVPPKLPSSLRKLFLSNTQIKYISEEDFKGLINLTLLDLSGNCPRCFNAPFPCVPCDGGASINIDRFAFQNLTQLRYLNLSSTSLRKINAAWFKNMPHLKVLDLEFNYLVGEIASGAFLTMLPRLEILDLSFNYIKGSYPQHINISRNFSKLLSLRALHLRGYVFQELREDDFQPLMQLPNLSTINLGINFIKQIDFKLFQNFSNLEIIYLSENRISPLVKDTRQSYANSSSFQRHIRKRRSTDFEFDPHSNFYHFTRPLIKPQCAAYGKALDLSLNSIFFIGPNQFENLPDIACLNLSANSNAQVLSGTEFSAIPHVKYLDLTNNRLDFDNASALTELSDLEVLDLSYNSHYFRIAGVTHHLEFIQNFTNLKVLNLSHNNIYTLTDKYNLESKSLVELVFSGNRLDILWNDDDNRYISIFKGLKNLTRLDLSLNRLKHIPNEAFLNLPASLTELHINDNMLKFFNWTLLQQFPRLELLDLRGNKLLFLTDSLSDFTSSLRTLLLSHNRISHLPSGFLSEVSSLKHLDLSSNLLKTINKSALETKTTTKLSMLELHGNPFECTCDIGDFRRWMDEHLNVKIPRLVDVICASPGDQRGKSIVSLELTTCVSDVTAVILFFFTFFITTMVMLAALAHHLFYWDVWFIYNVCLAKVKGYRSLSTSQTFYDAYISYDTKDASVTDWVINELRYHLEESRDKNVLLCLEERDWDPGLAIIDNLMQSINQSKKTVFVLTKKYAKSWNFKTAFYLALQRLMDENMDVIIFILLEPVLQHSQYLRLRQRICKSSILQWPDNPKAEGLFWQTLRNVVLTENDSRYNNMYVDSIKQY
Assay: TLR8 inhibition reporter assay (HEK-Blue, SEAP)
Conditions: HEK-Blue cells overexpressing human TLR8, ligand R848 14.25 μM, 22 hour incubation
# reported IC50; entries follow
assay_metric: IC50

{"molecule": "Cn1c(-c2ccc(S(C)(=O)=O)cc2)nc2ccc(C3CCN(C4CCN(C5CC5)CC4)CC3)nc21 [Example 19]", "observed_result": "> 25 µM"}
{"molecule": "COc1ccc(-c2nc3ncc(-c4ccc(N5CCN(C(C)C)CC5)cc4)cc3n2C)cc1OC [Example 48]", "observed_result": "18 µM"}
{"molecule": "COc1cc(-c2nc3c(C)cc(C4CCN([C@H]5C[C@@H]6CN(C7CCOCC7)C[C@@H]6C5)CC4)nc3n2C)cn2ncnc12 [Example 44]", "observed_result": "> 50 µM"}
